Target: AbCGT V183D (Aloe vera, UniProt A0A7G9P699, V183D)
Sequence (A0A7G9P699 1-470 V183D): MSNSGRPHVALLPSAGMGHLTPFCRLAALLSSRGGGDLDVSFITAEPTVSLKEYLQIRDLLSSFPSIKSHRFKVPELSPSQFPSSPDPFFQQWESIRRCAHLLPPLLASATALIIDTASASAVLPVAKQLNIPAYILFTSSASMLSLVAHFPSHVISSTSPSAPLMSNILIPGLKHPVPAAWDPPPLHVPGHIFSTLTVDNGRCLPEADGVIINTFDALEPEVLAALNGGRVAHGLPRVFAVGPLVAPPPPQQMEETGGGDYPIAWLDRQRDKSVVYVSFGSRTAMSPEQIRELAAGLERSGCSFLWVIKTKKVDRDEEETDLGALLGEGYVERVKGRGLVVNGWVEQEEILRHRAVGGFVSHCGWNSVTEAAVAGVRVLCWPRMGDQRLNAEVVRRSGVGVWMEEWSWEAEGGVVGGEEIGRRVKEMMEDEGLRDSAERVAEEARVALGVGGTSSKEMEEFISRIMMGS
Experiment: Glycosyltransferase activity of AbCGT variant V183D
Type: biochemical, Aloe barbadensis
Conditions: reaction-2
Reported V183D/yield of C-glycoside(%) values follow for various molecules
State just the number; it will be interpreted in %.

Illustrative cases are given below, each with its answer.
{"MOLECULE": "CC(=O)c1cc(O)cc(O)c1 [Compound 4, 3,5-dihydroxyacetophenone]", "TARGET UNDER TEST": "AbCGT V183D (Aloe vera, UniProt A0A7G9P699, V183D)", "V183D/yield of C-glycoside(%)": 0}
{"MOLECULE": "CC(=O)c1c(O)cc(C)cc1O", "TARGET UNDER TEST": "AbCGT V183D (Aloe vera, UniProt A0A7G9P699, V183D)", "V183D/yield of C-glycoside(%)": 7.2}
{"MOLECULE": "O=C1CC(O)(c2ccc(O)cc2)Oc2cc(O)cc(O)c21 (centres unmarked) [Compound 23, 2-hydroxynaringenin]", "TARGET UNDER TEST": "AbCGT V183D (Aloe vera, UniProt A0A7G9P699, V183D)", "V183D/yield of C-glycoside(%)": 99.5}
{"MOLECULE": "CC(=O)c1ccc(O)cc1", "TARGET UNDER TEST": "AbCGT V183D (Aloe vera, UniProt A0A7G9P699, V183D)", "V183D/yield of C-glycoside(%)": 0}

// next entry
INPUT: // lookup V183D/yield of C-glycoside(%) for CC(=O)c1c(O)cccc1O
OUTPUT: 7.5

* * *

Reported conversion rates of Phloretin values follow for various compounds
System: AbCGT
Test: Effects of pH, temperature and divalent metal ions on AbCGT activity (phloretin 17 + UDP-Glc)
Type: biochemical, Aloe barbadensis
Conditions: in presence of the divalent cation or EDTA; reaction-2

Illustrative cases are given below, each with its answer.
{"SMILES CODE": "[Ni+2]", "conversion rates of Phloretin": 6.2}
{"SMILES CODE": "O=C(O)CN(CCN(CC(=O)O)CC(=O)O)CC(=O)O", "conversion rates of Phloretin": 47}
{"SMILES CODE": "[Co+2]", "conversion rates of Phloretin": 21.2}
{"SMILES CODE": "[Cu+2]", "conversion rates of Phloretin": 0}
{"SMILES CODE": "[Ca+2].[Cl-].[Cl-]", "conversion rates of Phloretin": 83.3}

INPUT: // lookup conversion rates of Phloretin for [Ba+2].[Cl-].[Cl-]
OUTPUT: 63.6

INPUT: // lookup conversion rates of Phloretin for [Cl-].[Cl-].[Mg+2]
OUTPUT: 83

INPUT: // lookup conversion rates of Phloretin for [Zn+2]
OUTPUT: 2

INPUT: // lookup conversion rates of Phloretin for [Fe+2]
OUTPUT: 12.8

INPUT: // lookup conversion rates of Phloretin for [Cl][Mn][Cl]
OUTPUT: 92.4

* * *

Molecular target: AbCGT V183E (Aloe vera, UniProt A0A7G9P699, V183E)
Sequence (A0A7G9P699 1-470 V183E): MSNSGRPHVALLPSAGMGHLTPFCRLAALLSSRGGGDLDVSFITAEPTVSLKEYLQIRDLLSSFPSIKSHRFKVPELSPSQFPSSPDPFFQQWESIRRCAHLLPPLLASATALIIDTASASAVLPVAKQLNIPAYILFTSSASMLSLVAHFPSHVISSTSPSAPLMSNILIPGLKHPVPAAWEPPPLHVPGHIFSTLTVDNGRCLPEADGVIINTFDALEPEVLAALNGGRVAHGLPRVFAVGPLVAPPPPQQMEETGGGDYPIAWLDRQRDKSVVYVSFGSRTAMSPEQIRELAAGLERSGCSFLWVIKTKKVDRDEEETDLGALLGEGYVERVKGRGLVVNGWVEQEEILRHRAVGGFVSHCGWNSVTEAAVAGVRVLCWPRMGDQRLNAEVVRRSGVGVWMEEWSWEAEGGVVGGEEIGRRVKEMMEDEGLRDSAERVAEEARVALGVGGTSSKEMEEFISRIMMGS
Assay: Glycosyltransferase activity of AbCGT variant V183E
Type: biochemical, Aloe barbadensis
Conditions: reaction-1
PROPERTY LABEL: V183E/yield of O-glycoside(%)
Answer shape: numeric part, then the unit.

{"MOLECULE": "CC(=O)c1c(O)cccc1O [Compound 5]", "V183E/yield of O-glycoside(%)": "0%"}
{"MOLECULE": "COc1cc(O)c(C(C)=O)c(OC)c1 [Compound 14]", "V183E/yield of O-glycoside(%)": "0%"}
{"MOLECULE": "CC(=O)c1c(O)cc(C)cc1O [Compound 7]", "V183E/yield of O-glycoside(%)": "0%"}
{"MOLECULE": "Oc1cc(O)cc(OCCCCCCc2ccccc2)c1 [Compound 22]", "V183E/yield of O-glycoside(%)": "0%"}
{"MOLECULE": "CC(=O)c1cccc(O)c1 [Compound 2]", "V183E/yield of O-glycoside(%)": "0%"}

INPUT: Given the entry COc1cc(O)c(C(C)=O)c(O)c1 [Compound 13] , what V183E/yield of O-glycoside(%) was observed with AbCGT V183E (Aloe vera, UniProt A0A7G9P699, V183E)?
OUTPUT: 0.8%

INPUT: Given the entry CC(=O)c1cc(O)cc(O)c1 [Compound 4, 3,5-dihydroxyacetophenone] , what V183E/yield of O-glycoside(%) was observed with AbCGT V183E (Aloe vera, UniProt A0A7G9P699, V183E)?
OUTPUT: 0%

INPUT: Given the entry CC(=O)c1ccc(O)cc1O [Compound 6, 2,4-dihydroxyacetophenone] , what V183E/yield of O-glycoside(%) was observed with AbCGT V183E (Aloe vera, UniProt A0A7G9P699, V183E)?
OUTPUT: 0%

INPUT: Given the entry CC(=O)c1ccc(O)cc1 [Compound 3] , what V183E/yield of O-glycoside(%) was observed with AbCGT V183E (Aloe vera, UniProt A0A7G9P699, V183E)?
OUTPUT: 0%
